# TEST_METHOD_NOTES: Part I: multiple rising oral dose pharmacokinetics of NC-758 in healthy young and elderly subjects (Example 8)
# Type: in vivo, human
# CONDITION: human, plasma, oral; NC-758 100 mg BID, Day 1, young (18-45 years) male subjects, fasted, mean; read-out: AUC0-12 h
PROPERTY_NAME: AUC(0-t) (ng·h/mL)
Answer format: numeric, ng·h/mL implied, no suffix.

(Q) Fill in the blank: the reported AUC(0-t) of NCCCS(=O)(=O)O is ____.
(A) 1330

----------
# TEST_METHOD_NOTES: Pharmacokinetics of NC-758-1 in mild to moderate Alzheimer's Disease patients, 12 weeks BID (Example 10)
# Type: in vivo
# CONDITION: human, plasma, oral, 50 mg, Alzhemed (NC-758-1) 50 mg BID, Week 0 (single dose), AD patients, mean
PROPERTY_NAME: Cmax

(Q) Record request: Cmax value, item NCCCS(=O)(=O)O [3-APS, 3-amino-1-propanesulfonic acid]
(A) ~310 ng/mL
